Can you tell me normalized RNA/DNA level with ligand (log10) for the items I'm about to list?
B1: library; a variant is named by its letters at N, in order (parent)
chain: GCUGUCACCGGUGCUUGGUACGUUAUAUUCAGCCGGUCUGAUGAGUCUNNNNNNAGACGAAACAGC

- Variants of: B1
- PROTOCOL: normalized RNA/DNA level with ligand (relative to sTRSVctl = 100) (log10 (% of sTRSVctl)); HEK293T overexpressing SLC46A1; ligand concentration (+) RNA-Seq: 6 mM; higher = less ribozyme self-cleavage, higher mRNA level
- CONDITIONS: with (6R,S)-folinic acid; ligand present: yes

Task item: Given AGACUU , respond with its normalized RNA/DNA level with ligand (log10).
Reply: 1.99

Task item: Given ACUACC , respond with its normalized RNA/DNA level with ligand (log10).
Reply: 2.01

Task item: Given ACAGAC , respond with its normalized RNA/DNA level with ligand (log10).
Reply: 2.02

Task item: Given GCCCCU , respond with its normalized RNA/DNA level with ligand (log10).
Reply: 2.02

Task item: Given GAGGAG , respond with its normalized RNA/DNA level with ligand (log10).
Reply: 2.03

Task item: Given UGAUAU , respond with its normalized RNA/DNA level with ligand (log10).
Reply: 1.98

Task item: Given UUAGUU , respond with its normalized RNA/DNA level with ligand (log10).
Reply: 1.97

Task item: Given GGUUUA , respond with its normalized RNA/DNA level with ligand (log10).
Reply: 1.98

Task item: Given AGAAAA , respond with its normalized RNA/DNA level with ligand (log10).
Reply: 2

Task item: Given GUUGUA , respond with its normalized RNA/DNA level with ligand (log10).
Reply: 1.97

Task item: Given UUCGUC , respond with its normalized RNA/DNA level with ligand (log10).
Reply: 2.06

Task item: Given AUGGGA , respond with its normalized RNA/DNA level with ligand (log10).
Reply: 2.01

Task item: Given UCGGGC , respond with its normalized RNA/DNA level with ligand (log10).
Reply: 2.03

Task item: Given GUCAUU , respond with its normalized RNA/DNA level with ligand (log10).
Reply: 2.01

Task item: Given AUAGUA , respond with its normalized RNA/DNA level with ligand (log10).
Reply: 1.97

Task item: Given CAACCA , respond with its normalized RNA/DNA level with ligand (log10).
Reply: 2.02

Task item: Given CAACCC , respond with its normalized RNA/DNA level with ligand (log10).
Reply: 2.03

Task item: Given AGUUAU , respond with its normalized RNA/DNA level with ligand (log10).
Reply: 2.02

Task item: Given UGGGCA , respond with its normalized RNA/DNA level with ligand (log10).
Reply: 2.01

Task item: Given GGAAGA , respond with its normalized RNA/DNA level with ligand (log10).
Reply: 2.04

Task item: Given CACUGC , respond with its normalized RNA/DNA level with ligand (log10).
Reply: 2.05

Task item: Given CGUUUU , respond with its normalized RNA/DNA level with ligand (log10).
Reply: 2.04

Task item: Given CGAACC , respond with its normalized RNA/DNA level with ligand (log10).
Reply: 2.02

Task item: Given GCGAUC , respond with its normalized RNA/DNA level with ligand (log10).
Reply: 2

Task item: Given CACGCA , respond with its normalized RNA/DNA level with ligand (log10).
Reply: 2.02

Task item: Given GCUAGG , respond with its normalized RNA/DNA level with ligand (log10).
Reply: 2.03

Task item: Given CUUCUG , respond with its normalized RNA/DNA level with ligand (log10).
Reply: 2.03

Task item: Given CCUCGA , respond with its normalized RNA/DNA level with ligand (log10).
Reply: 2.02

Task item: Given CCACGU , respond with its normalized RNA/DNA level with ligand (log10).
Reply: 2.04

Task item: Given GUUGCU , respond with its normalized RNA/DNA level with ligand (log10).
Reply: 2.01

Task item: Given GAGGGA , respond with its normalized RNA/DNA level with ligand (log10).
Reply: 2.04

Task item: Given UGCAAC , respond with its normalized RNA/DNA level with ligand (log10).
Reply: 1.99

Task item: Given CGGACC , respond with its normalized RNA/DNA level with ligand (log10).
Reply: 2.05

Task item: Given ACUUAA , respond with its normalized RNA/DNA level with ligand (log10).
Reply: 1.98

Task item: Given GACUGA , respond with its normalized RNA/DNA level with ligand (log10).
Reply: 2

Task item: Given CCUCCA , respond with its normalized RNA/DNA level with ligand (log10).
Reply: 2.04

Task item: Given UUGAAG , respond with its normalized RNA/DNA level with ligand (log10).
Reply: 1.98

Task item: Given CCGGAG , respond with its normalized RNA/DNA level with ligand (log10).
Reply: 2.02

Task item: Given GCCGUA , respond with its normalized RNA/DNA level with ligand (log10).
Reply: 2.02

Task item: Given GAGGAU , respond with its normalized RNA/DNA level with ligand (log10).
Reply: 2.02

Task item: Given AAAGGC , respond with its normalized RNA/DNA level with ligand (log10).
Reply: 2.04

Task item: Given CAAGCU , respond with its normalized RNA/DNA level with ligand (log10).
Reply: 2.05

Task item: Given AGCUGU , respond with its normalized RNA/DNA level with ligand (log10).
Reply: 2.03

Task item: Given GCAAGU , respond with its normalized RNA/DNA level with ligand (log10).
Reply: 2.02

Task item: Given CUGCCU , respond with its normalized RNA/DNA level with ligand (log10).
Reply: 2

Task item: Given UAUAGG , respond with its normalized RNA/DNA level with ligand (log10).
Reply: 1.92
